system: Rhizoctonia solani; experiment: Rhizoctonia solani (rice sheath blight/potato black scurf) in vitro test, radial growth on Potato Dextrose Agar; type: cell-based; conditions: 168 h, compared to the untreated check, radial growth after seven days, read-out: control
Overview of recorded inhibition of growth at 300 ppm for various compounds

Some compounds with known inhibition of growth at 300 ppm results, for comparison:
structure	experimental-target	inhibition of growth at 300 ppm
CC(=O)N1CC[C@@H](Sc2ccc(-c3noc(C(F)(F)F)n3)cc2)C1	Rhizoctonia solani	> 70%
CC(=O)N1CC(N(C)c2ccc(-c3noc(C(F)(F)F)n3)cc2)C1	Rhizoctonia solani	> 70%
Cc1ccc(CN2CC[C@H](Oc3ccc(-c4noc(C(F)(F)F)n4)cc3)C2)cc1	Rhizoctonia solani	> 70%

Then there is this compound:
Hi! What's the reported inhibition of growth at 300 ppm for "O=C(c1ccncc1)N1CC[C@H](Oc2ccc(-c3noc(C(F)(F)F)n3)cn2)C1" on Rhizoctonia solani?
> 70%
